Reference for the values: the supplement of paper PMC8092582

Test system: HeLa
Assay: cell viability (CellTiter-Glo) relative to median of lowest-dilution wells of all drugs (fraction); higher = more viable cells
Details: drug concentration (unit not stated): 0.12; genotype: control (DDX11 wild type)
Examples of compounds with documented cell viability follow.
Enter the number alone.

Answered cases to consult:
# structure-notation, cell viability
data = [
    ("O=c1[nH]cc(F)c(=O)[nH]1", 1),
    ("Cc1cc(Nc2cc(N3CCN(C)CC3)nc(Sc3ccc(NC(=O)C4CC4)cc3)n2)n[nH]1", 0.978),
]

Q: Given Nc1ncn([C@H]2C[C@H](O)[C@@H](CO)O2)c(=O)n1 , state its recorded cell viability.
A: 1.06

Q: C[C@@H](Nc1cc(F)cc(F)c1)c1cc(C(=O)N(C)C)cc2c(=O)cc(N3CCOCC3)oc12 ?
A: 1.01

Q: Nc1nc(Cl)nc2c1ncn2[C@H]1C[C@H](O)[C@@H](CO)O1 ?
A: 1.2
